Would you mind telling me the reported log10 IC50 of each entry?
Biological target: KRAS WT (Homo sapiens (Human), UniProt P01116)
Sequence (P01116-2 other isoform, or with tags, fused parts or gaps): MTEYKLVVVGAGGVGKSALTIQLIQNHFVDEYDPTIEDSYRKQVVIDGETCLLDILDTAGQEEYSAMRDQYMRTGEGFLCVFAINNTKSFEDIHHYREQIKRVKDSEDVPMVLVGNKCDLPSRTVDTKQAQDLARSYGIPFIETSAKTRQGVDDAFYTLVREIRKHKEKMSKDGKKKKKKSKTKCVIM
Assay: KRAS WT Biochemical Assay, BODIPY-GDP Exchange TR-FRET (Example 501; 3 nM KRAS WT, 3 nM SOS1, 60-minute incubation)
Settings: read-out: KRas HTRF IC50
Description: Example 501: KRAS WT Biochemical Assay, BODIPY-GDP Exchange TR-FRET. Biochemical compound potencies are assessed by evaluating inhibition of SOS1-mediated nucleotide exchange in KRAS WT. In this assay, the SOS1-promoted exchange of fluorescently-labeled GDP (BOPIDY-GDP) is monitored by time-resolved fluorescence resonance energy transfer (TR-FRET). […] After a 60-minute incubation, the fluorescence is measured with excitation at 337 nm and emission at 490 and 520 nm. […]
Recall that a logarithmic scale is used here: each number is log10 of IC50 in nM.

Please provide the recorded log10 IC50 for Cc1nc(N)cc(-c2nc3c4c(nc(OCC5(CN6CC7COCC7C6)CC5)nc4c2F)N2C[C@H]4CC[C@H](N4)[C@H]2[C@H](C)O3)c1C(F)(F)F (some centres unmarked) , tested on KRAS WT (Homo sapiens (Human), UniProt P01116).
0.94

Please provide the recorded log10 IC50 for `Cc1c(F)c(N)cc(-c2nc3c4c(nc(OCC5(CN6CCOCC6)CC5)nc4c2F)N2C[C@H]4CC[C@H](N4)[C@H]2[C@H](C(F)(F)F)O3)c1C(F)(F)F` , tested on KRAS WT (Homo sapiens (Human), UniProt P01116).
0.14

Please provide the recorded log10 IC50 for `Cc1nc(N)cc(-c2nc3c4c(nc(OCC5(CN6CC[C@H]7OCC[C@H]76)CC5)nc4c2F)N2C[C@H]4CC[C@H](N4)[C@H]2[C@H](C)O3)c1C(F)(F)F` , tested on KRAS WT (Homo sapiens (Human), UniProt P01116).
1.08

Please provide the recorded log10 IC50 for Cc1c(F)c(N)cc(-c2nc3c4c(nc(OC[C@@]56CCCN5C[C@H](F)C6)nc4c2F)N2CCN[C@H](C)[C@@H]2[C@@H](C)O3)c1C(F)(F)F (single isomer, unassigned) [234 (isomer 4)] , tested on KRAS WT (Homo sapiens (Human), UniProt P01116).
2.71

Please provide the recorded log10 IC50 for Cc1nc(N)cc(-c2nc3c4c(nc(OCC5(CN6CCC(C(F)F)C6)CC5)nc4c2F)N2C[C@H]4CC[C@H](N4)[C@H]2[C@H](C)O3)c1C(F)(F)F (some centres unmarked) , tested on KRAS WT (Homo sapiens (Human), UniProt P01116).
0.95

Please provide the recorded log10 IC50 for Cc1c(F)c(N)cc(-c2nc3c4c(nc(OC[C@@]56CCCN5C[C@H](F)C6)nc4c2F)N2C[C@H]4CC[C@H](N4)[C@@H]2[C@H](C)O3)c1C(F)(F)F (single isomer, unassigned) [237 (isomer 1)] , tested on KRAS WT (Homo sapiens (Human), UniProt P01116).
3.01

Please provide the recorded log10 IC50 for Cc1nc(N)cc(-c2nc3c4c(nc(OCC56CCCN5CC(F)C6)nc4c2F)N2CC4CCC(N4)[C@H]2[C@@H](C(F)(F)F)O3)c1C(F)(F)F (stereo in doubt) , tested on KRAS WT (Homo sapiens (Human), UniProt P01116).
3.60

Please provide the recorded log10 IC50 for `Cc1c(F)c(N)c(F)c(-c2nc3c4c(nc(OC[C@@]56CCCN5C/C(=C\F)C6)nc4c2F)N2C[C@H]4CC[C@H](N4)[C@H]2[C@H](C)O3)c1C(F)(F)F` , tested on KRAS WT (Homo sapiens (Human), UniProt P01116).
1.08

Please provide the recorded log10 IC50 for Cc1nc(N)c(F)c(-c2nc3c4c(nc(OC[C@@]56CCCN5CC5(CC5(F)F)C6)nc4c2F)N2C[C@H]4CC[C@H](N4)[C@H]2[C@H](C(F)(F)F)O3)c1C(F)(F)F (some centres unmarked) , tested on KRAS WT (Homo sapiens (Human), UniProt P01116).
0.92

Please provide the recorded log10 IC50 for `Cc1c(F)c(N)c(F)c(-c2nc3c4c(nc(OC[C@@]56CCCN5C[C@H](F)C6)nc4c2F)N2C[C@H]4CC[C@H](N4)[C@H]2[C@H](C)O3)c1I` , tested on KRAS WT (Homo sapiens (Human), UniProt P01116).
1.84

Please provide the recorded log10 IC50 for Cc1c(F)c(N)cc(-c2nc3c4c(nc(OC[C@@]56CCCN5C[C@H](F)C6)nc4c2F)N2C[C@H]4CC[C@H](N4)[C@H]2C(CF)O3)c1C(F)(F)F (some centres unmarked) , tested on KRAS WT (Homo sapiens (Human), UniProt P01116).
-0.03

Please provide the recorded log10 IC50 for Cc1c(F)c(N)cc(-c2nc3c4c(nc(OC[C@@]56CCCN5C[C@H](F)C6)nc4c2F)N2C[C@H]4CC[C@H](N4)[C@H]2[C@H](C(F)F)O3)c1C(F)(F)F (single isomer, unassigned) [238 (isomer 1)] , tested on KRAS WT (Homo sapiens (Human), UniProt P01116).
3.58

Please provide the recorded log10 IC50 for `C[C@@H]1Oc2nc(-c3c(F)ccc4cc[nH]c(=O)c34)c(F)c3nc(OC[C@@]45CCCN4C[C@H](F)C5)nc(c23)N2C[C@H]3CC[C@H](N3)[C@@H]12` , tested on KRAS WT (Homo sapiens (Human), UniProt P01116).
4.30

Please provide the recorded log10 IC50 for `Cc1c(F)c(O)cc(-c2nc3c4c(nc(OC[C@@]56CCCN5C[C@H](F)C6)nc4c2F)N2C[C@H]4CC[C@H](N4)[C@H]2[C@H](C)O3)c1C(F)(F)F` , tested on KRAS WT (Homo sapiens (Human), UniProt P01116).
2.33

Please provide the recorded log10 IC50 for `Cc1nc(N)cc(-c2nc3c4c(nc(OCC5(CN6C[C@@H]7C[C@H]6CO7)CC5)nc4c2F)N2C[C@H]4CC[C@H](N4)[C@H]2[C@H](C)O3)c1C(F)(F)F` , tested on KRAS WT (Homo sapiens (Human), UniProt P01116).
1.39

Please provide the recorded log10 IC50 for Cc1c(F)c(N)cc(-c2nc3c4c(nc(OC[C@@]56CCN(C)C5COC6)nc4c2F)N2C[C@H]4CC[C@H](N4)[C@H]2[C@H](C)O3)c1C(F)(F)F (single isomer, unassigned) [258 (isomer 1)] , tested on KRAS WT (Homo sapiens (Human), UniProt P01116).
1.17

Please provide the recorded log10 IC50 for Cc1c(F)c(N)cc(-c2nc3c4c(nc(OC[C@]5(CN6CC7(COC7)C6)CC5(F)F)nc4c2F)N2C[C@H]4CC[C@H](N4)[C@H]2[C@H](C(F)(F)F)O3)c1C(F)(F)F (stereo in doubt) [255 b] , tested on KRAS WT (Homo sapiens (Human), UniProt P01116).
0.07

Please provide the recorded log10 IC50 for Cc1nc(N)cc(-c2nc3c4c(nc(OCC5N(C)C[C@]56CC6(F)F)nc4c2F)N2C[C@H]4CC[C@H](N4)[C@H]2[C@H](C(F)(F)F)O3)c1C(F)(F)F (single isomer, unassigned) [262 (isomer 3)] , tested on KRAS WT (Homo sapiens (Human), UniProt P01116).
3.03

Please provide the recorded log10 IC50 for `Cc1cc(N)c(F)c(-c2nc3c4c(nc(OC[C@@]56CCCN5C[C@H](F)C6)nc4c2F)N2C[C@H]4CC[C@H](N4)[C@H]2[C@H](C)O3)c1CC(F)(F)F` , tested on KRAS WT (Homo sapiens (Human), UniProt P01116).
1.53

Please provide the recorded log10 IC50 for `Cc1nc(N)cc(-c2nc3c4c(nc(OC[C@@]56CCCN5C[C@H](F)C6)nc4c2F)N2C[C@H]4CC[C@H](N4)[C@H]2[C@H](C)O3)c1C(F)(F)F` , tested on KRAS WT (Homo sapiens (Human), UniProt P01116).
0.85
